Measured Binding Affinity to Mouse MHC Class I of individual entries
target: mouse B6 class I antigens (H-2^b: D^b or K^b) on RMA-S cells (mouse); test: binding of 9mer peptide to mouse B6 (H-2^b) class I antigens, RMA-S cell assay
// note: answer is a bare numeric in %

Identify Binding Affinity to Mouse MHC Class I associated with the binder QASSGQARM [WT1 peptide P119-127 (…)]
2

Identify Binding Affinity to Mouse MHC Class I associated with the binder MFPNAPYLP [WT1 peptide P127-135 (…)]
2

Identify Binding Affinity to Mouse MHC Class I associated with the binder ARMFPNAPY [WT1 peptide P125-133 (…)]
1

Identify Binding Affinity to Mouse MHC Class I associated with the binder ASSGQARMF [WT1 peptide P120-128 (…)]
1
